- protocol.text: in vivo
- measurement.context: mouse, po, mice, p.o. as salt in saline, deaths within two days
Structures can show the parent of a compound that is named as a salt.
// classify: if (LD50 at 48 h < 1000 mg/kg) 1 else -1

A selection of reference data follows.
molecule: CCCCC(C)(C)NC(=O)CN.O=C(O)C(=O)O [Example 5, hydrogen oxalate]
label.value: 1

molecule: CC1(NC(=O)CN)CCCCCC1 [Example 4, hydrogen oxalate, 2-Amino-N-(1-methylcycloheptyl)acetamide]
label.value: -1

molecule: CC(C)(CC1CCCC1)NC(=O)CN.CCO.O=C(O)/C=C/C(=O)O [Example 11, hydrogen fumarate]
label.value: 1

Strictly below 1000 mg/kg: is that where LD50 at 48 h of CC1(NC(=O)CN)CCCCC1 [Example 3, hydrogen oxalate, 2-Amino-N-(1-methylcyclohexyl)acetamide] sits?
-1

Strictly below 1000 mg/kg: is that where LD50 at 48 h of CCCCCC(C)NC(=O)CN.O=C(O)CCC(=O)O (stereo not drawn) [Example 8, hydrogen succinate] sits?
1
